details: in water, 293.15 K
recorded.endpoint: solubility (mole fraction)
Form rule: numeric answer, no unit written next to it.

Which solubility (mole fraction) value belongs to CN1CCC(N(Cc2cccs2)c2ccccc2)CC1 ?
3.36e-05

---

conditions: in DMF, 278.15 K
recorded.endpoint: solubility (mole fraction)
Write the value as a bare number.

# query: solubility (mole fraction) of entry CN1CCC(N(Cc2cccs2)c2ccccc2)CC1
0.00706

---

settings: in water, 303.15 K
recorded.endpoint: solubility (mole fraction)
Give a plain numeric answer without units written out.

Which value of solubility (mole fraction) has been reported for CN1CCC(N(Cc2cccs2)c2ccccc2)CC1 in the records?
4.16e-05
